STUDY SYSTEM: bovine cerebral TPK1 (Bos taurus)
TEST DESCRIPTION: Inhibitory activity against P-GS1 phosphorylation by bovine cerebral TPK1
Assay type: biochemical
pIC50: −log10 of the molar value.
MEASUREMENT TYPE: pIC50

## Task Note pIC50 for the molecule shown: Cn1c(O[C@H]2C[C@H]3CC[C@@H](C2)N3)nc(-c2ccncn2)cc1=O
## Result 6.47 to 6.94

---

For each record, write down the corresponding pIC50.
STUDY SYSTEM: UniProtKB A0A059UE90
TEST DESCRIPTION: Inhibitory activity against P-GS1 phosphorylation by bovine cerebral TPK1
Format: biochemical
ASSAY CONTEXT: P-GS1 phosphorylation, 41.7 μM [γ-32P] ATP, 25° C., 2 hours; read-out: IC50
One number for each entry, as −log10 of the molar value.

Guide cases for pIC50, answers given:
MOLECULE | MEASURED VALUE
COc1cccc(N2CCCC(Oc3nc(-c4ccncn4)cc(=O)n3C)C2)c1 (stereo not shown) | 8.82
Cn1c(OC2CCN(c3cncnc3)CC2)nc(-c2ccncc2F)cc1=O | 6.67
Cn1c(O[C@H]2C[C@H]3CC[C@@H](C2)N3c2ccc(F)cc2)nc(-c2ccncn2)cc1=O | 6.63

## Task Note pIC50 for the molecule shown: Cn1c(OC2CCN(c3ccc(CN4Cc5ccccc5C4)cc3)CC2)nc(-c2ccncn2)cc1=O
## Result 8.08

---

STUDY SYSTEM: bovine cerebral TPK1 (Bos taurus, UniProt A0A059UE90)
Sequence (A0A059UE90 1-419): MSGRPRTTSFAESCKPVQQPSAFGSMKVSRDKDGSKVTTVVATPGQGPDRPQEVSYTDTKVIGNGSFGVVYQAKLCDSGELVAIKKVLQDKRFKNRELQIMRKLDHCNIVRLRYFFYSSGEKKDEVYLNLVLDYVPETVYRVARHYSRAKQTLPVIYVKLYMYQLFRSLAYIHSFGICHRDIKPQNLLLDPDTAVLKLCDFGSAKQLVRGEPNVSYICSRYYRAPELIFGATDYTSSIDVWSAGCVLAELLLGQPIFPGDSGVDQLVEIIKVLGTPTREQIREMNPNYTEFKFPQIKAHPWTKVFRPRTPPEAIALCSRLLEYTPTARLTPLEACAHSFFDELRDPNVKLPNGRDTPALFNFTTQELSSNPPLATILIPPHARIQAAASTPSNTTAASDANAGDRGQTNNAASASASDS
TEST DESCRIPTION: Inhibitory activity against P-GS1 phosphorylation by bovine cerebral TPK1
Type: biochemical
ASSAY CONTEXT: P-GS1 phosphorylation, 41.7 μM [γ-32P] ATP, 25° C., 2 hours; read-out: IC50
For each record, write down the corresponding pIC50.
Give bare numbers, as −log10 of the molar value.

Guide cases for pIC50, answers given:
COMPOUND | pIC50
Cn1c(OC2CCCN(c3ccc(C#N)cc3)CC2)nc(-c2ccncn2)cc1=O (centres unmarked) [Compound No. 1.701] | 7.52
Cn1c(OC[C@@H]2CCCN2c2ccc(F)cc2)nc(-c2ccncc2F)cc1=O [2.205] | 7.74
Cn1c(OC2CCCN(S(=O)(=O)c3ccccc3)C2)nc(-c2ccncn2)cc1=O (centres unmarked) [1.109] | 7.12
Cn1c(OC2CCN(c3ccc(CN4CCCCC4)cc3)CC2)nc(-c2ccncc2)cc1=O [1.215] | 7.30
Cn1c(OC2CCN(c3ccc4c(c3)COC(=O)N4)CC2)nc(-c2ccncn2)cc1=O [Compound No. 1.401] | 7.36

// each compound listed below needs its pIC50
1. Cn1c(OCC2CCN(c3ccc(CN4CCCCC4)cc3)CC2)nc(-c2ccncc2F)cc1=O [1.234]
2. Cn1c(OCC2CCN(c3ccc(CN4CCCCC4)cc3)CC2)nc(-c2ccncc2)cc1=O [1.232]
3. CC(=O)N1CCN(c2ccc(N3CCC(Oc4nc(-c5ccncn5)cc(=O)n4C)CC3)cc2)CC1 [1.210]

## Result
[7.81, 6.79, 7.56]

---

For each record, write down the corresponding IC50.
STUDY SYSTEM: bovine cerebral TPK1 (Bos taurus, UniProt A0A059UE90)
TEST DESCRIPTION: Inhibitory activity against P-GS1 phosphorylation by bovine cerebral TPK1
Format: biochemical
ASSAY CONTEXT: P-GS1 phosphorylation, 41.7 μM [γ-32P] ATP, 25° C., 2 hours; read-out: IC50
Structures can show the parent of a compound that is named as a salt.
One number for each entry, in nM.

Guide cases for IC50, answers given:
COMPOUND | IC50 [nM]
Cn1c(OC2CCN(c3ccc(N4CCNCC4)cc3)CC2)nc(-c2ccncn2)cc1=O | 10.7
CN1Cc2ccc(N3CCC(Oc4nc(-c5ccncn5)cc(=O)n4C)CC3)cc2C1 | 23.7
Cn1c(OC[C@@H]2CCN(c3ccsc3)C2)nc(-c2ccncc2F)cc1=O | 108
Cn1c(OCCc2ccccc2)nc(-c2ccncn2)cc1=O | 160

Below: the item to evaluate.
## Task Note IC50 for the compound shown: CN(C)Cc1ccc(CCOc2nc(-c3ccncc3)cc(=O)n2C)cc1 [Compound No. 2.402, dihydrochloride]
## Result 150
